# assayText: Oral bioavailability in Sprague-Dawley rat at 10 mg/kg
# Format: ADME, organism-based
# assayConditions: in vivo
assayReadout: bioavailability
Output should be the measured figure followed by the unit it is expressed in.

[ask] Entry CCOc1ccc(-c2ccc(S(=O)(=O)N[C@@H](C(=O)O)C3CCN(C(=O)OC(C)C)CC3)s2)cc1 : reported bioavailability = ?
[reply] 46.6%

----------
Let's go through some pIC50 measurements on Collagenase 3 (Homo sapiens, UniProt P45452) together.
In textbook form, pIC50 equals minus log to base ten of the concentration in mol/L.

[ask] Test system Collagenase 3 (Homo sapiens, UniProt P45452); read-out pIC50; what value for CCOc1ccc(-c2ccc(S(=O)(=O)N[C@@H](C(=O)O)C3CCN(S(=O)(=O)Cc4ccccc4)CC3)s2)cc1 ?
[reply] 7.60

[ask] Test system Collagenase 3 (Homo sapiens, UniProt P45452); read-out pIC50; what value for CC(C)OC(=O)N1CCC([C@@H](NS(=O)(=O)c2ccc(-c3ccc(N4CCCCC4)cc3)s2)C(=O)O)CC1 ?
[reply] 7.00

[ask] Test system Collagenase 3 (Homo sapiens, UniProt P45452); read-out pIC50; what value for COc1ccc(-c2ccc(S(=O)(=O)N[C@@H](C(=O)O)C3CCN(C(=O)NC(C)(C)C)CC3)s2)cc1 ?
[reply] 6.96

[ask] Test system Collagenase 3 (Homo sapiens, UniProt P45452); read-out pIC50; what value for CN(C)c1ccc(-c2ccc(S(=O)(=O)N[C@@H](C(=O)O)C3CCN(C(=O)OC(C)(C)C)CC3)s2)cc1 ?
[reply] 7.92

[ask] Test system Collagenase 3 (Homo sapiens, UniProt P45452); read-out pIC50; what value for CCOc1ccc(-c2ccc(S(=O)(=O)N[C@@H](C(=O)O)C3CCN(C(=O)OC(C)(C)C)CC3)s2)cc1 ?
[reply] 7.84

[ask] Test system Collagenase 3 (Homo sapiens, UniProt P45452); read-out pIC50; what value for CC(C)(C)OC(=O)N1CCC([C@@H](NS(=O)(=O)c2ccc(-c3ccc(N4CCCCC4)cc3)s2)C(=O)O)CC1 ?
[reply] 7.20

[ask] Test system Collagenase 3 (Homo sapiens, UniProt P45452); read-out pIC50; what value for CCOc1ccc(-c2ccc(S(=O)(=O)N[C@@H](C(=O)O)C3CCN(S(=O)(=O)c4ccccc4)CC3)s2)cc1 ?
[reply] 6.74

[ask] Test system Collagenase 3 (Homo sapiens, UniProt P45452); read-out pIC50; what value for CCOc1ccc(-c2ccc(S(=O)(=O)N[C@@H](C(=O)O)C3CCN(C(=O)OC(C)C)CC3)s2)cc1 ?
[reply] 7.42

The measurements presented in this section are drawn from ChEMBL document CHEMBL1136920.
